- studyTarget: FLT3 (Homo sapiens, UniProt P36888)
- Sequence (P36888 27-993): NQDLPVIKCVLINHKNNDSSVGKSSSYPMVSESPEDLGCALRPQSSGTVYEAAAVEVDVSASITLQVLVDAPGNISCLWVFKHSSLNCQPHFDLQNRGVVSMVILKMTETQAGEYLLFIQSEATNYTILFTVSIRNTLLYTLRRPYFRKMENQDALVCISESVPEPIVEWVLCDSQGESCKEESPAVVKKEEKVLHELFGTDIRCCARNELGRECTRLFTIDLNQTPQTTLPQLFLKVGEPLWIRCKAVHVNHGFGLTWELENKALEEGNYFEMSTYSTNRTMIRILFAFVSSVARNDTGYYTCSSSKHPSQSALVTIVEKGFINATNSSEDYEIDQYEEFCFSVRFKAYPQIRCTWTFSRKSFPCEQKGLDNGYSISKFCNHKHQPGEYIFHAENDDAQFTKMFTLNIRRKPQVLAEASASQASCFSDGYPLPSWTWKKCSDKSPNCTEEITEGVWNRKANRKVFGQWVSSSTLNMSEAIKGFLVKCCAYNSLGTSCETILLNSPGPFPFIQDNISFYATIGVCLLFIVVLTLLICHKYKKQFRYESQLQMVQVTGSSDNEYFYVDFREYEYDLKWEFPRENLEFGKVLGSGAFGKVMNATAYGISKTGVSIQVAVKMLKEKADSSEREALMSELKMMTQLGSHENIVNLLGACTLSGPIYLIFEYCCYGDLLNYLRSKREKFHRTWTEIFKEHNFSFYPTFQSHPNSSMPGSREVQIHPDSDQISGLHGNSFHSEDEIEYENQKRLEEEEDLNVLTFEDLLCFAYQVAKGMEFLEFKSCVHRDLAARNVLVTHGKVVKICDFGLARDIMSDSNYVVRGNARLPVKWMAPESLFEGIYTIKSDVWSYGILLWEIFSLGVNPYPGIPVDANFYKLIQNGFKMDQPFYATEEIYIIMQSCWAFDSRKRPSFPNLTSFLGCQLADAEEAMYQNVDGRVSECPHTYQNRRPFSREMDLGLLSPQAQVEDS
measure: IC50

So for CC1=C(CC(=O)/C=C/c2cccc(CO)c2)C(=O)C=C2C1=CC=C1[C@@]2(C)CC[C@@]2(C)C3C[C@](C)(C(=O)CCc4nc(C(O)C(O)O)c(C)nc4C)CC[C@]3(C)CC[C@]12C (stereo partly shown) [CP1] , the logged IC50 turned out to be > 30 µM

----------
- studyTarget: TYK2 (Homo sapiens, UniProt P29597)
- Sequence (P29597 whole entry, species assumed): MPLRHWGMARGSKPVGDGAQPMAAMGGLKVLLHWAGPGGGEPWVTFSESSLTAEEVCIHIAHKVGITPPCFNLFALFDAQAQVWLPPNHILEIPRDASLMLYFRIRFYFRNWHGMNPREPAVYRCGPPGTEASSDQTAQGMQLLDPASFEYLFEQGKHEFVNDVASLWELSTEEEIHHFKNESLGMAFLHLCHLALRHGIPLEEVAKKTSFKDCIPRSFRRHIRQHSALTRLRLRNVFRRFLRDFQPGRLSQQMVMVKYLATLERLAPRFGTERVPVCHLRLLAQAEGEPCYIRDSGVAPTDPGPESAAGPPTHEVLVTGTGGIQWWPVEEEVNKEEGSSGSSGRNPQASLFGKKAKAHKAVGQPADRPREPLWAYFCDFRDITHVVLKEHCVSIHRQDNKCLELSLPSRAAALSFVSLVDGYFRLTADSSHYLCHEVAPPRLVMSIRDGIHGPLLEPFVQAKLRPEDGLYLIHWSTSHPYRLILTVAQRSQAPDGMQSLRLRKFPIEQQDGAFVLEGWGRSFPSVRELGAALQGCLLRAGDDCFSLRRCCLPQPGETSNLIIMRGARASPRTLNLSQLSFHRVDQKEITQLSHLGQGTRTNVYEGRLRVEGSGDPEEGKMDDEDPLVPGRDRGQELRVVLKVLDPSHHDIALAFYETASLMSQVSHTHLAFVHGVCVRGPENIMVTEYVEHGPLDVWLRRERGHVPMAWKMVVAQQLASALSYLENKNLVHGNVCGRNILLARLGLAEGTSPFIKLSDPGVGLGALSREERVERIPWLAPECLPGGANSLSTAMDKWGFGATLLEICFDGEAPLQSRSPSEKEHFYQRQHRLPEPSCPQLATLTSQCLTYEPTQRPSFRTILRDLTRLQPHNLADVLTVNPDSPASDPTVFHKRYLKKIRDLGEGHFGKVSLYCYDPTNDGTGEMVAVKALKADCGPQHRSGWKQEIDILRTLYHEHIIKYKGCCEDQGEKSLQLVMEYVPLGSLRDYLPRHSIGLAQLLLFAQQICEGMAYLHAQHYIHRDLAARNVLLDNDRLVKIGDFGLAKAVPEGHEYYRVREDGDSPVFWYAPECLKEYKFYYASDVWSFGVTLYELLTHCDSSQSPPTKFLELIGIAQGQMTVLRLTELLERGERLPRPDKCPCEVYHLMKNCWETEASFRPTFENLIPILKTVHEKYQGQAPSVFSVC
pIC50: −log10 of the molar value.
measure: pIC50

So for CC1=C(CC(=O)/C=C/c2cccc(CO)c2)C(=O)C=C2C1=CC=C1[C@@]2(C)CC[C@@]2(C)C3C[C@](C)(C(=O)CCc4nc(C(O)C(O)O)c(C)nc4C)CC[C@]3(C)CC[C@]12C (stereo partly shown) [CP1] , the logged pIC50 turned out to be < 4.52

----------
- studyTarget: TEC (Homo sapiens, UniProt P42680)
- Sequence (P42680 whole entry): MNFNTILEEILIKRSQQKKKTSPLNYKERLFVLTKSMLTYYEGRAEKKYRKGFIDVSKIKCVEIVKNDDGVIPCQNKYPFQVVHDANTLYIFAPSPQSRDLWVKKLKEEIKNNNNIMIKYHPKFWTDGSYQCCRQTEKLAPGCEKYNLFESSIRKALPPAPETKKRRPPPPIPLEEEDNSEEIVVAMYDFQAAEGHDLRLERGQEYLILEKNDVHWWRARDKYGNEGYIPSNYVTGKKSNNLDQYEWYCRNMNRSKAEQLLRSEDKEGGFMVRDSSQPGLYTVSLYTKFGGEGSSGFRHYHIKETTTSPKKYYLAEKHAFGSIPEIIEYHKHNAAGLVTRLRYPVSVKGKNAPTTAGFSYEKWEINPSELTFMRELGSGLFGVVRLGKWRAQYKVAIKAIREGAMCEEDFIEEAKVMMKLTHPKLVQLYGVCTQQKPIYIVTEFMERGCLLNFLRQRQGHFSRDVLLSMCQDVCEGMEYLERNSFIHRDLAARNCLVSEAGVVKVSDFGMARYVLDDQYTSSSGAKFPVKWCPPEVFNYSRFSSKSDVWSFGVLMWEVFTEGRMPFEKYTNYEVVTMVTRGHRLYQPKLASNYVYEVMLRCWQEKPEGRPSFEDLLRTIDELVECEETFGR
measure: IC50

# value of IC50, TEC (Homo sapiens, UniProt P42680), item CC1=C(CC(=O)/C=C/c2cccc(CO)c2)C(=O)C=C2C1=CC=C1[C@@]2(C)CC[C@@]2(C)C3C[C@](C)(C(=O)CCc4nc(C(O)C(O)O)c(C)nc4C)CC[C@]3(C)CC[C@]12C (stereo partly shown) [CP1] = > 30 µM
